Measure: IC50

Quote IC50 with test system Human Factor XIIa (hFXIIa) (Homo sapiens) for CCNC(=O)c1nn(-c2cccc(Cl)c2)c2c1CCN(c1cccc(N3CCCN(C)C3=O)c1)C2=O 1000 to 3000 nM

Quote IC50 with test system Human Factor XIIa (hFXIIa) (Homo sapiens) for CCN1CCOc2ccc(N3CCc4c(C(=O)NCc5cnccc5C)nn(-c5cccc(Cl)c5)c4C3=O)cc2C1=O 10 to 100 nM

Quote IC50 with test system Human Factor XIIa (hFXIIa) (Homo sapiens) for CCOC(=O)c1nn(-c2cccc(Cl)c2)c2c1CCN(c1cccc(CN(C)C(=O)CO)c1)C2=O 10000 to 40000 nM

Quote IC50 with test system Human Factor XIIa (hFXIIa) (Homo sapiens) for CN1CCc2ccc(N3CCc4c(C(=O)NCC5CCCCC5)nn(-c5cccc(Cl)c5)c4C3=O)cc2C1 100 to 300 nM

Quote IC50 with test system Human Factor XIIa (hFXIIa) (Homo sapiens) for Cc1cc(CNC(=O)c2nn(-c3cccc(Cl)c3)c3c2CCN(c2ccc4c(c2)N(C)C(=O)CC4)C3=O)nn1C 1000 to 3000 nM

Quote IC50 with test system Human Factor XIIa (hFXIIa) (Homo sapiens) for CCNC(=O)c1nn(-c2cccc(Cl)c2)c2c1CCN(c1cccc(N3CC4(COC4)CC3=O)c1)C2=O 10000 to 40000 nM

Quote IC50 with test system Human Factor XIIa (hFXIIa) (Homo sapiens) for COc1cccnc1CNC(=O)c1nn(-c2cccc(Cl)c2)c2c1CCN(c1ccc3c(c1)CN(CCO)CC3)C2=O 10 to 100 nM

====

pIC50: −log10 of the molar value.
For each of the compounds below, state its pIC50.

Quote pIC50 with test system Human Factor XIIa (hFXIIa) (Homo sapiens) for Cc1nc2c(C#N)nn(-c3cccc(Cl)c3)c2c(=O)n1-c1ccc2c(c1)CN(CCO)CC2 6.52 to 7.00

Quote pIC50 with test system Human Factor XIIa (hFXIIa) (Homo sapiens) for O=C(NCC1CC1)c1nn(-c2cccc(Cl)c2)c2c1CCN(c1ccc3c(c1)CN(CC(F)(F)F)CC3)C2=O 5.52 to 6.00

Quote pIC50 with test system Human Factor XIIa (hFXIIa) (Homo sapiens) for CCN1CCc2ccc(N3CCc4c(C(=O)N[C@H]5CCOC5)nn(-c5cccc(Cl)c5)c4C3=O)cc2C1 6.52 to 7.00

Quote pIC50 with test system Human Factor XIIa (hFXIIa) (Homo sapiens) for Cc1cncc(CNC(=O)c2nn(-c3cccc(Cl)c3)c3c2CCN(c2ccc4c(c2)C(=O)N(C)CC4)C3=O)c1 6.52 to 7.00

Quote pIC50 with test system Human Factor XIIa (hFXIIa) (Homo sapiens) for Cc1cc(CNC(=O)c2nn(-c3cccc(Cl)c3)c3c2CCN(c2ccc4c(c2)C(=O)N(CC(=O)O)CC4)C3=O)n[nH]1 6.00 to 6.52

Quote pIC50 with test system Human Factor XIIa (hFXIIa) (Homo sapiens) for Cn1cc(CNC(=O)c2nn(-c3cccc(Cl)c3)c3c2CCN(c2ccc4c(c2)CN(CCO)CC4)C3=O)cn1 6.52 to 7.00

Quote pIC50 with test system Human Factor XIIa (hFXIIa) (Homo sapiens) for O=C(NCc1ccco1)c1nn(-c2cccc(Cl)c2)c2c1CCN(c1ccc3c(c1)CN(CCO)CC3)C2=O 7.00 to 8.00

====

For each of the compounds below, state its pIC50.
pIC50: −log10 of the molar value.

Quote pIC50 with test system Thrombin (Homo sapiens) for Cc1cc(CNC(=O)c2nn(-c3cc(Cl)cc(CN)c3)c3c2CCN(c2ccc4c(c2)C(=O)N(C)CC4)C3=O)nn1C 5.52 to 6.00

Quote pIC50 with test system Thrombin (Homo sapiens) for CN1CCc2ccc(N3CCc4c(C(=O)NC5CCCC5)nn(-c5cccc(Cl)c5)c4C3=O)cc2C1 < 4.00

Quote pIC50 with test system Thrombin (Homo sapiens) for Cc1cc(CNC(=O)c2nn(-c3cccc(Cl)c3)c3c2CCN(c2ccc4c(c2)C(=O)N(CC(F)(F)F)CCO4)C3=O)n[nH]1 4.40 to 5.00

Quote pIC50 with test system Thrombin (Homo sapiens) for CN1CCc2ccc(N3CCc4c(C(=O)NCC5CC5)nn(-c5cc(Cl)cc(CN)c5)c4C3=O)cc2C1=O 4.40 to 5.00

Quote pIC50 with test system Thrombin (Homo sapiens) for CCNC(=O)c1nn(-c2cc(Cl)cc(COC)c2)c2c1CCN(c1ccc3c(c1)C(=O)N(C)CC3)C2=O < 4.40

====

Measure: IC50

Quote IC50 with test system FXa (Homo sapiens) for CCN1CCc2cc(F)c(N3CCc4c(C(=O)NCc5cc(C6CC6)n[nH]5)nn(-c5cccc(Cl)c5)c4C3=O)cc2C1 [Example 1234] 3 to 10 µM

Quote IC50 with test system FXa (Homo sapiens) for CN1CCc2ccc(N3CCc4c(C(=O)N5CCCO5)nn(-c5cccc(Cl)c5)c4C3=O)cc2C1=O [Example 1343] 10 to 40 µM

Quote IC50 with test system FXa (Homo sapiens) for Cc1cc(CNC(=O)c2nn(-c3cccc(Cl)c3)c3c2CCN(c2ccc4c(c2)CN(CCO)CC4)C3=O)[nH]n1 [Example 1077] 3 to 10 µM

Quote IC50 with test system FXa (Homo sapiens) for CCN1Cc2cc(N3CCc4c(C(=O)NCC5CC5)nn(-c5cccc(Cl)c5)c4C3=O)ccc2[C@@H](C)C1 [Example 1153] 10 to 40 µM

Quote IC50 with test system FXa (Homo sapiens) for CCN1CCOc2ccc(N3CCc4c(C(=O)NCC5CC5)nn(-c5cccc(Cl)c5)c4C3=O)cc2C1=O [Example 1374] 10 to 40 µM

Quote IC50 with test system FXa (Homo sapiens) for CCN1CCc2ccc(N3CCc4c(C(=O)NCc5nn(C)cc5C)nn(-c5cccc(Cl)c5)c4C3=O)cc2C1=O [Example 1224] > 40 µM

Quote IC50 with test system FXa (Homo sapiens) for CN1CCc2ccc(N3CCc4c(C(=O)NC(CO)C5CCOC5)nn(-c5cccc(Cl)c5)c4C3=O)cc2C1=O (stereo not shown) [Example 1180] > 40 µM

====

target: FXa (Homo sapiens, UniProt P00742); experiment: Related protease inhibition: FXa, fluorogenic substrate; assay type: biochemical; conditions: fluorogenic substrate at Km, 25° C.; H1-H3 = % activity at 40 μM; read-out: IC50 (human FXa) nM
Sequence (P00742 235-488 limits assumed): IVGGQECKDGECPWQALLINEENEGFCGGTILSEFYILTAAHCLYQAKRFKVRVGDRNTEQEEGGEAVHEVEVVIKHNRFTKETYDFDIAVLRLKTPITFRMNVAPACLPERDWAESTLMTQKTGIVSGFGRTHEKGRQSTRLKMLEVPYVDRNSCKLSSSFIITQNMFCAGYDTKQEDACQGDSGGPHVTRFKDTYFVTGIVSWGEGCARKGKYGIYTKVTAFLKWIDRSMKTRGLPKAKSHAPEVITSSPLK
Sequence (P00742 41-179 partner limits assumed): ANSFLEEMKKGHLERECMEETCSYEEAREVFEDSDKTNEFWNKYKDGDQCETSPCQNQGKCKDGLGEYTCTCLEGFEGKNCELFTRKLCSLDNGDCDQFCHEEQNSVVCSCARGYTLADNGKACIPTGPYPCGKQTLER
For each of the molecules below, state its activity at 40 µM.

// Input: CCNC(=O)c1nn(-c2cccc(Cl)c2)c2c1CCN(c1cccc(N3CCN(C)CC3=O)c1)C2=O . Output its activity at 40 µM only. > 80%

// Input: CCNC(=O)c1nn(-c2cccc(Cl)c2)c2c1CCN(c1cccc(N3CCN(C)C(=O)C3)c1)C2=O . Output its activity at 40 µM only. 20 to 80%

// Input: CN1CCOc2ccc(N3CCc4c(C(=O)N[C@@H](CO)C5CC5)nn(-c5cccc(Cl)c5F)c4C3=O)cc2C1=O . Output its activity at 40 µM only. < 20%

// Input: CN1CCc2ccc(N3CCc4c(C(=O)N[C@H]5COC[C@H]5O)nn(-c5cccc(Cl)c5)c4C3=O)cc2C1=O . Output its activity at 40 µM only. 20 to 80%

// Input: CN1CCOc2ccc(N3CCc4c(C(=O)N[C@H](CO)C5CC5)nn(-c5cccc(Cl)c5F)c4C3=O)cc2C1=O . Output its activity at 40 µM only. 20 to 80%

// Input: CN1CCc2ccc(N3CCc4c(C(=O)N[C@@H]5COC[C@@H]5O)nn(-c5cccc(Cl)c5)c4C3=O)cc2C1=O . Output its activity at 40 µM only. 20 to 80%

// Input: CCNC(=O)c1nn(-c2cccc(Cl)c2)c2c1CCN(c1cccc(N3C4CCC3CN(C)C4)c1)C2=O . Output its activity at 40 µM only. > 80%

====

Target: Human Factor XIIa (hFXIIa) (Homo sapiens, UniProt P00748)
Sequence (P00748 373-615 limits assumed): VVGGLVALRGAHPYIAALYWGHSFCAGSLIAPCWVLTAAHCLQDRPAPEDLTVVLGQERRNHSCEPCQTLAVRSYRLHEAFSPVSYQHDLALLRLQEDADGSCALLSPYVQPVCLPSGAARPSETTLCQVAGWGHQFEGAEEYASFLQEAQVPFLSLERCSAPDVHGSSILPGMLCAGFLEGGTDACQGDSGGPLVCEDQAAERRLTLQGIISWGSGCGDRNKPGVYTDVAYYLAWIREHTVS
Sequence (P00748 20-372 partner limits assumed): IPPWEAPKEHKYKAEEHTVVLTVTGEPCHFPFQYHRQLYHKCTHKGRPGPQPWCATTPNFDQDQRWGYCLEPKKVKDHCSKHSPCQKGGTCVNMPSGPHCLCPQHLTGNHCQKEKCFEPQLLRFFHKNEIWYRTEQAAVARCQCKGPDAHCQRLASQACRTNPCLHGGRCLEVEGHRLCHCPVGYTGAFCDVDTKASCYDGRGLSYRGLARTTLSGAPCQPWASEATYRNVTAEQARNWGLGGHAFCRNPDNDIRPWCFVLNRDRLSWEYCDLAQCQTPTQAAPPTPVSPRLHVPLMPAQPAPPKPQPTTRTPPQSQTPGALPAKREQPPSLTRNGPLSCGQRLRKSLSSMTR
pIC50: −log10 of the molar value.
Measure: pIC50

// Input: O=C(NCc1ccccc1)c1nn(-c2cccc(Cl)c2)c2c1CCN(c1ccc3c(c1)CN(CC1CCCC1)CC3)C2=O . Output its pIC50 only. 6.00 to 6.52

// Input: Cc1nc2c(C(=O)NCC3CC3)nn(-c3cccc(Cl)c3)c2c(=O)n1-c1ccc2c(c1)CN(C)CC2 . Output its pIC50 only. 6.52 to 7.00

// Input: CCNC(=O)c1nn(-c2cccc(Cl)c2)c2c1CCN(c1cccc(N3CCC4(CC4)C3=O)c1)C2=O . Output its pIC50 only. 5.52 to 6.00

// Input: O=C(Cn1nc(-c2cccc(Cl)c2)c2c1CCN(c1ccc3c(c1)CN(CCO)CC3)C2=O)NCC1CC1 . Output its pIC50 only. 5.52 to 6.00
